# assay.method.text: yeast display, Sf9 membrane polyspecificity reagent, FACS + sequencing; frameworks hold sequencing errors

sequence.input	polyreactivity (PSR sort gate)
QVQLVESGGGLVQAGGSLRISCAASGSTFGEYALGWYRQAPGKERELVAVITSDDNTYYADSVKGRFTISRDNAKNTVYLQMNSLKPEDTAVYYCATDDRRRFKYWGQGTQVTVSS	high polyreactivity
QVQLVESGGGLVQAGGSLRLSCAASGFTFTDYAMGWYRQAPGKERELVAAITSGDSTYYADSVKGRFTISRDNAKNTVYLQMNSLKPEDTAVYYCNKLRRSPNSQYYYWGQGTQVTVSS	high polyreactivity

---

# assay.method.text: yeast display, Sf9 membrane polyspecificity reagent, FACS + sequencing; frameworks hold sequencing errors
metric: polyreactivity (PSR sort gate)

As a guide, the following entries are already answered.
sequence.input	polyreactivity (PSR sort gate)
QVQLVESGGGLVQAGGSLRLSCAASGSIFSRNTMGWYRQAPGKERELVAGISSSGSRTYYADSVKGRFTISRDNPKNTVYLQMNSLKPEDTAVYYCAAEHQRSRGRRYYIGYDYWGQGTQVTVSS	low polyreactivity
QVQLVESGGGLVQAGGSLRLSCAASGRIFWWYAMGWYRQAPGKERELVAVIDDSGGITYYADSVKGRFTISRDKANNTVYLQMNSLNPEDTAVYYCARNVNAQKVLGGFDSWGQGTQVTVSS	low polyreactivity
QVQLVESGGGLGQAGGSLRLSCAASGVSNAMGWYRQAPGKERELVAAISRSGGSTYYADSVKGRFTISRDNAKNTVYLQMNRLKPEDTAVYYCNARPYWIDGSGLFPYDYWGQGSQVTVSS	high polyreactivity
QVQLVESGGGLVQAGGSLRLSCASSGFTFTANDMGWYRKAPGKERELVAAISWSGDSTYYADSVKGRFTISRDNAKNTVYLQMNRLIPEDTAVYYCNVVFEFLSDGYYSYDYWVQGTQVTVSS	low polyreactivity

// recorded polyreactivity (PSR sort gate) for QVQLVESGGGLVQAGGSLRLSCAASGSTFRYYAMGWYRQAPGKERELVASISTGGRTYYADSVKGRFTISRDNAKNTVYLQMNSLKPEDTAVYYCAAQGYWIYNTAYGYWGQGTQVTVSS : high polyreactivity

# polyreactivity (PSR sort gate) of QVQLVESGGGLVQAGGSLRLRCAASARIYDTYAMGWYRQAPGKERELVASISIDGSTYYADSVKGRFTISRDNAKNTVYLQMNSLKREDTAVYYCNADGRYYTVRFEYWGQGTQVTVSS = low polyreactivity

The value of polyreactivity (PSR sort gate) measured for the sequence QVQLVESGGGLVQAGGSIRLSCAASGRILYGNAMGWYRQAPGKEREFVAAITFRGGSTYYADSVKGRFTISRDNAKNTVYLQMNSLKPEDTAVYYCNARGHCGWGTSMYYWGQGTQVTVSS turned out to be high polyreactivity

Lab book: polyreactivity (PSR sort gate) of QVQLVESGGGLVQAGGSLRLSCAASGSIFYYNALGWYRHAPGKERELVASISNGGSTDYADSVKGRFTISRDNAKNTVYLQMNSVKPEDTAVYYCNAKQSYRSDYDYWGQGTQVTVSS noted as low polyreactivity

Sample QVQLVESGGGLVQAGGSLRLSCADSGVIFVGYAMGGYRQAHGKERELVASIDGRVGSTYYADSVKGRFTISRDNAKITVYLQMNSLKPEDTAVYYCAAGGRAVRIYWGYYRTSYDYWGQGTQVTVSS ; polyreactivity (PSR sort gate) observed: low polyreactivity

Measured polyreactivity (PSR sort gate) of QVQLVESGGGLVQTGGSLRVSCAASGLIFSRSAMGWYRQAPGKVRELVAAISSRGGSTYYADSVKGRFTISRDNAKNTVYLQMKSLIPEDTAVYFCDASRSYVHPVIGYGYWGQGTQVTVSS : high polyreactivity

Sample QVQLVESGGGLVQAGGSLRLSCAASGFTFRYYTMGWYRQAPGKERELVARITTGGSTYYADPVKGRFTISRDNAKKTVYLQMNSLKPEDTAVYFCAARLSRWWPPTGVHYTDRYYWGQGTQVTVSS ; polyreactivity (PSR sort gate) observed: high polyreactivity

---

# assay.method.text: yeast display, Sf9 membrane polyspecificity reagent, FACS + sequencing; frameworks hold sequencing errors
metric: polyreactivity (PSR sort gate)

Look over these answered cases.
sequence.input	polyreactivity (PSR sort gate)
QGQLVDSGGGLVQAGGSLRLSCAASGSIVRPNAMGWYRPAPGKEREFVAAITSSSGPTYYADSVKGRFTISRDNAKNTVYLQMNSLKPEDTAVYYCAAKYTSRSYKYDYWGHGTQVTVSS	high polyreactivity
QVQLVESGGGIVQAGGSLRLSCAASGRTFAGYAMGWYRQAPGKERELVAGISVDDSTTYYADSVKGRFTISRDNANNTVYLQMISLKPEDTAVYYCNADYIDTFRGFDYWGQGTLVTVSS	low polyreactivity
QVQLVESGGGLVQAGGSLRLSCAASGLTFGHYDMGWYRQAPGKERELVAAITWSGGSTYYADSVKGRFTISRDNAKNTVYLQMNSLKPEDTAVYYCNADQPILYYSYRGVGYDYWGQGTQVTVSS	high polyreactivity
QVQLVESGGGLVQAGGSLRLSCAASGRIFVRNAMGWYRQAPGKERELVAAISWSSGGTYYADSVKGRFTISRDNAKNTVYLQMNSLKPEDTAVYYCNADPSRAGDYWGQGTQVTVSS	low polyreactivity

Now consider a different sequence.
Quick note, polyreactivity (PSR sort gate) for QVQLVESGGGLVHAGGSLRLSCAASGSIYVDNAMGWYRQAPGTERELVAVISWIGSSTYYADSVKGRFTISRDNAKYTVYFQMNSLNPEDTAVFYCAAAPSRTLLRQSKYYFWGQGTQVNVSS landed at low polyreactivity

---

# assay.method.text: yeast display, Sf9 membrane polyspecificity reagent, FACS + sequencing; frameworks hold sequencing errors
metric: polyreactivity (PSR sort gate)

Here is how some sequences turned out for polyreactivity (PSR sort gate).
sequence.input	polyreactivity (PSR sort gate)
QVQLLESGGGLVQAGGSLRLSCAASGSTCGRNAMGWYRQAPGKERELVAAITSTGSTYYADSVKGRFTISRDNAKNTFYLQMNSLNPEDTAVYYCAAEARPYLFPAYKYPYYSWGQGTQVTVSS	low polyreactivity
QVQLVESGGGLVQAGGSLRLSCAASGRTLGANAMGWYRQAPGKEREFVAAISYSDTRTYADSVKGRFTISRDNAKNTVYFQMNSLKPEDTAVYYCAADYYTWYGILYDYWGQGTQVTVSS	low polyreactivity
QVQLVESGGGLVQAGGSLRLSCAASGRTFAGNAMGWYRQATGKERELVASITWTGGRTYYADSVKGRFTISRDNAKNTVYLQMNSLKPEDTAVYYCAARPDYYYFRGDYWGQGTQVTVSS	high polyreactivity
QVQLVESGGGIVQSGGSLRLSCAASGRTFSSYAMGRYRQAPGKEMALVAAINRGGGSTYYADSVKGRFTISRDNAKNTVYLQMNSLKPEDTAVYYCNARSKLTYEYDYWGQGTQVTVSS	high polyreactivity
QVKLVESAGGLVQAGGSRRLSCAASGSIFRAYAMGWYRQAPGKESELVADISRSGGSTYYADSVKGRFTISRDNAKNNVYLQMNSLIPEDTAVYYCNRLPQYALPYRHNGYWGQGTQVTVSS	low polyreactivity

The sequence listed as QVQHEESGGGLDQAGGSLRLSSASSGTIFYGCYMGWYRQARGKEREMVATISWSSGSSTYYADSVKGRFTISRDNANNSVYLQMNILKPEDTAVYYCAVDFAIGYRYLCRVDYWGQGTQVTVSS shows polyreactivity (PSR sort gate) equal to low polyreactivity

---

# assay.method.text: yeast display, Sf9 membrane polyspecificity reagent, FACS + sequencing; frameworks hold sequencing errors

sequence.input	polyreactivity (PSR sort gate)
QVQLVESGGGLVQAGGSLRLSCAASGSTFLRNAMGWYRQAPGKERELVAAISLGSGSTYYADSVKGRFTISRDNAKNTVYLQMNSLKPEDTAVYYCAADVSRWLDYGYDYWGQVTQVTVSS	low polyreactivity
QVQLVESGGGLVQAGGSLRLSCAASGAIFFFNAMGWYRQAPGKEREFVAAITSSSGRTYYADSVKGRFTISRDNAKNSVYLQMNSLKPEDTAVYSCDADWAWLQWAYDYWGQGTKVTVSS	low polyreactivity

---

# assay.method.text: yeast display, Sf9 membrane polyspecificity reagent, FACS + sequencing; frameworks hold sequencing errors
metric: polyreactivity (PSR sort gate)

sequence.input	val
QVQLVESGGGLVQAGGSLRLSCAASGITFGVYGMGWYRQAPGKERELVAAIDQSGDSTYYADSVKGRFTISRDNAKNTVYLQMNSLKPEDTAVYYCAAQSYDYWYDYDYWGQGTQVTVSS	high polyreactivity
QVQLVESGGGLVQAGGSLRLSCAASGRIIYVKAMGWYRQAPGKERELVAAISSRGGTTYYADSVKGRFTISRDNAKNSVYLQMNSLKPEDTAVYYCNAGRVRHGNDYWGQGTQVTVSS	high polyreactivity
QGQLVESGGCLVQAGGSLRLSCDASGFIFTSYAMGWYRQAPGQEWELVAVITASGGSTYYADSVKGRFTISRDNAKNTVYLQMNSLKPEDTAVYYCNRYYQSYYGWTGPYGYWGQGTQVTVSS	high polyreactivity
